- assay.summary: Quantitative highthroughput screen to assess conditional lethalithy of NOMO1 cells grown in RPMI1640 with dialyzed fetal bovine serum (RPMI+ds) (AID 1963877); note: nearly all actives have a fitted effect of over 30% in size;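 for viability: 100% = DMSO control wells and 0% = empty wells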
- setup.conditions: NOMO1 in RPMI+dialyzed FBS viability, ATP luminescence, 48 h; series mostly up to 45.8 µM
Results filed as inconclusive are left out. The source made the active and inactive calls. Calls come from the whole dose curve; as a rule, active = well fitted cell-killing curve with a large enough effect; inconclusive = small, poorly fitted or top-dose-only effect; inactive = flat fitted curve, though single readings scatter.
Mark one answer only. Choices: active, inactive

Any idea what this test logged for OCc1ccc(-c2ccc(-c3ccc(CO)s3)o2)s1 ?
inactive

Any idea what this test logged for NC(=O)c1cnccn1 ?
inactive

Any idea what this test logged for C[C@H]1COc2c(N3CCN(C)CC3)c(F)cc3c(=O)c(C(=O)O)cn1c23 ?
active

Any idea what this test logged for COc1cc2c(Oc3ccc(-c4cnc(Nc5ccc(F)cc5)n(C)c4=O)cc3F)ccnc2cc1OCCCN1CCOCC1 ?
active

Any idea what this test logged for Cc1cc2c(s1)Nc1ccccc1N=C2N1CCN(C)CC1 ?
inactive

Any idea what this test logged for Cn1cc(-c2[nH]c3cc(NC(=O)[C@H](N)C4CCCCC4)cc4c3c2C=NNC4=O)cn1 ?
active

Any idea what this test logged for CCn1cc(C(=O)O)c(=O)c2cc(F)c(N3CCNC(C)C3)c(F)c21 (stereo not given) ?
inactive

Any idea what this test logged for CCc1ccc(OCc2ccccc2C(=O)Nc2ccc3nc(C)cc(N)c3c2)cc1 ?
active

Any idea what this test logged for NC(=O)OCC(COC(N)=O)c1ccccc1 ?
inactive

Any idea what this test logged for CCC1=C[C@@H]2CN(C1)Cc1c([nH]c3ccccc13)[C@@](C(=O)OC)(c1cc3c(cc1OC)N(C)[C@@H]1[C@@](O)(C(=O)OC)[C@H](OC(C)=O)[C@]4(CC)C=CCN5CC[C@]31[C@@H]54)C2 ?
active

Any idea what this test logged for C[C@]12CC[C@@H]3c4ccc(O)cc4CC[C@H]3[C@H]1C[C@@H](O)[C@H]2O ?
inactive

Any idea what this test logged for CCC(C)n1ncn(-c2ccc(N3CCN(c4ccc(OC[C@H]5CO[C@](Cn6cncn6)(c6ccc(Cl)cc6Cl)O5)cc4)CC3)cc2)c1=O (stereo not given in full) ?
inactive

Any idea what this test logged for Cc1cn[nH]c1 ?
inactive

Any idea what this test logged for CC1(C)OC2CC3C4CC(F)C5=CC(=O)C=CC5(C)C4C(O)CC3(C)[C@]2(C(=O)CO)O1 (stereo not given in full) ?
inactive

Any idea what this test logged for COCCCOc1cc(C[C@@H](C[C@H](N)[C@@H](O)C[C@H](C(=O)NCC(C)(C)C(N)=O)C(C)C)C(C)C)ccc1OC ?
inactive

Any idea what this test logged for CC(C)[C@H](CO)Nc1nc(Nc2cccc(Cl)c2)c2ncn(C(C)C)c2n1 ?
active

Any idea what this test logged for Nc1cccc(S(=O)(=O)N2CCCN(S(=O)(=O)c3ccc4c(c3)OCCO4)CC2)c1 ?
inactive

Any idea what this test logged for O=C(O)C(=O)Nc1cccc(C2=NN=N[N]2)c1 ?
inactive

Any idea what this test logged for O=C(Nc1ccccc1Br)N[C@@H]1CCN(c2ccc(C(F)(F)F)cn2)C1 ?
inactive

Any idea what this test logged for Clc1ccc2c(c1)C(N1CCNCC1)=Nc1ccccc1O2 ?
inactive

====

- assay.summary: Viability qHTS for spleen associated tyrosine kinase inhibitor (SYKi) naive MV4-11 cells (AID 1963823); note: nearly all actives have a fitted effect of over 40% in size
- setup.conditions: MV4-11 AML viability, CellTiter-Glo luminescence, 72 h; series mostly up to 45 µM
Records with an inconclusive call do not appear. The source made the active and inactive calls. Calls follow the shape of the dose curve; as a rule, active = well fitted cell-killing curve with a large enough effect; inconclusive = small, poorly fitted or top-dose-only effect, or effect the other way; inactive = no such curve, though single readings can be large or run the other way.
Mark one answer only. Choices: true (1) = active, false (0) = inactive

Any idea what this test logged for COc1cc(C(=O)OC[C@@]2(O)CO[C@@H](O[C@H]3[C@H](Oc4ccc(C(=O)O)cc4OC)O[C@H](CO)[C@@H](O)[C@@H]3O)[C@@H]2O)ccc1O ?
false (0)

Any idea what this test logged for Cc1cnc(NC(=O)Nc2cc(Br)c(C)cc2OC[C@@H]2CNCCO2)cn1 ?
true (1)

Any idea what this test logged for Cc1c(N)cccc1C(F)(F)F ?
false (0)

Any idea what this test logged for CN1CC(=O)N/C1=N/C(=O)Nc1cccc(Cl)c1 ?
false (0)

Any idea what this test logged for CC(Sc1nc2c(cnn2-c2cccc(Cl)c2)c(=O)[nH]1)C(N)=O (centres undefined) ?
false (0)

Any idea what this test logged for CC(NC(=O)C(O)C(C)C)C(=O)NC1C(=O)N(C)CCc2ccccc21 (centres undefined) ?
false (0)

Any idea what this test logged for Cc1ccc(C(=O)OCc2ccc([C@@H](CN)C(=O)Nc3ccc4cnccc4c3)cc2)c(C)c1 ?
true (1)

Any idea what this test logged for CC1=CC(=O)CC(C)(CO[C@@H]2O[C@H](CO)[C@@H](O)[C@H](O)[C@H]2O)C1(O)/C=C/C(C)=C/C(=O)O (some centres undefined) ?
false (0)

Any idea what this test logged for CNC[C@H](O)[C@@H](O)[C@H](O)[C@H](O)CO ?
false (0)

====

Please provide measured activity (max response) for the entries that follow.
- assay.summary: Cellular viability qHTS for adrenocortical cancer (ACC) cell line SW-13 (AID 1963989);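 note: cells grown in serum-free medium with ITS supplement; % is set by controls: 0 for no effect and ±100 for the full control effect; nearly all actives have a fitted effect of over 65% in size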
- setup.conditions: SW-13 ACC cells viability, CellTiter-Glo, 48 h; stronger effect = lower value
- Description: PI: Naris Nilubol, MD Surgical Oncology Program, National Cancer Institute (NCI) National Institute of Health (NIH), Bethesda, Maryland Adrenocortical cancer (ACC) is a rare malignancy with poor survival outcomes and few treatment options. Currently, mitotane is the only FDA-approved therapy for ACC. […] Through a quantitative high-throughput drug screen (qHTS), we identified auranofin (AF), a thioredoxin reductase (TXNRD) inhibitor, as a promising candidate drug. […]
Records with an inconclusive call do not appear.
Report the value in % with no unit label.

Just so you know, measured activity (max response) for CC(COc1ccccc1)NC(C)C(O)c1ccc(O)cc1 (stereo not given) came out at 3.43

Just so you know, measured activity (max response) for N[C@@H](CCC(=O)N[C@@H](CS)C(=O)NCC(=O)O)C(=O)O came out at -1.28

Just so you know, measured activity (max response) for CN(C)CCN(Cc1ccc(Cl)cc1)c1ccccn1 came out at -3.95

Just so you know, measured activity (max response) for CC(C)C(=O)Nc1cccc(C(F)(F)F)c1 came out at 14.2

Just so you know, measured activity (max response) for CC(C)C(=O)OCC(=O)[C@@]12O[C@H](C3CCCCC3)O[C@@H]1C[C@H]1[C@@H]3CCC4=CC(=O)C=C[C@]4(C)[C@H]3[C@@H](O)C[C@@]12C came out at -10.3

====

- assay.summary: Quantitative highthroughput screen to assess conditional lethalithy of P12 Ichikawa cells grown in Human Plasma-Like Medium with dialyzed fetal bovine serum (HPLM+ds) (AID 1963879); note: nearly all actives have a fitted effect of over 35% in size
- setup.conditions: ATP luminescence, 48 h; viability; series mostly up to 45.8 µM
Inconclusive results are not listed. Calls of active or inactive are those of the source. The call rests on the fitted dose curve; in most records, active means well fitted cell-killing curve with a large enough effect; inconclusive means small, poorly fitted or top-dose-only effect; inactive means flat fitted curve, though single readings scatter.
Mark one answer only. Choices: active, inactive

Any idea what this test logged for C[C@@H]1C(=O)O[C@H]2CC34[C@H]5C[C@@H](C(C)(C)C)C36[C@H](OC(=O)[C@@H]6O)O[C@@]4(C(=O)O5)[C@]21O (some centres undefined) ?
inactive

Any idea what this test logged for CC[C@@]1(O)C(=O)OCc2c1cc1n(c2=O)Cc2cc3c(CN(C)C)c(O)ccc3nc2-1 ?
active

Any idea what this test logged for CCc1cnn2c(NCc3ccc[n+]([O-])c3)cc(N3CCCC[C@@H]3CCO)nc12 ?
active

Any idea what this test logged for CC1=C(C)C(=O)C(C(CCCCCC(=O)O)c2ccccc2)=C(C)C1=O (centres undefined) ?
inactive

Any idea what this test logged for O=C1c2ccccc2-c2n[nH]c3cccc1c23 ?
active

Any idea what this test logged for CCC[C@@H]1C[C@@H](C(=O)N[C@@H]([C@H]2O[C@H](SC)[C@H](O)[C@@H](O)[C@H]2O)[C@@H](C)O)N(C)C1 ?
inactive

Any idea what this test logged for CCc1ccc(C(=O)Nc2cc(CN3CCN(C)CC3)cc(C(F)(F)F)c2)cc1C#Cc1cnc2ccnn2c1 ?
inactive

Any idea what this test logged for O=S(=O)(O)CCSSCCS(=O)(=O)O ?
inactive

Any idea what this test logged for CNC(=O)c1ccccc1Nc1nc(Nc2ccc(N3CCOCC3)cc2OC)ncc1Cl ?
active

====

- assay.summary: Cellular viability qHTS for adrenocortical cancer (ACC) cell line NCI-H295R (AID 1963990); note: nearly all actives have a fitted effect of over 60% in size
- setup.conditions: CellTiter-Glo ATP luminescence, 48 h; series mostly up to 46.1 µM
Inconclusive results are not listed. Activity calls are given as the source filed them. The call rests on the fitted dose curve; in most records, active means well fitted cell-killing curve with a large enough effect; inconclusive means small, poorly fitted or top-dose-only effect; inactive means flat fitted curve, though single readings scatter.
Mark one answer only. Choices: yes (1) for active, no (0) for inactive

Any idea what this test logged for COCCc1ccc(OCC2CO2)cc1 (configuration not stated) ?
no (0)

Any idea what this test logged for CNc1ncc2cc(-c3cc(NC(=O)NCCC(C)(C)C)c(F)cc3C)c(C)nc2n1 ?
yes (1)

Any idea what this test logged for CCOc1cc2ncc(C#N)c(Nc3ccc(OCc4ccccn4)c(Cl)c3)c2cc1NC(=O)/C=C/CN(C)C ?
yes (1)

Any idea what this test logged for C[C@@H]1COCCN1c1cc(C2(S(C)(=N)=O)CC2)nc(-c2ccnc3[nH]ccc23)n1 (some centres not stated) ?
yes (1)

Any idea what this test logged for C1=CC2C3C=CC(C3)C2C1 (configuration not stated) ?
no (0)

Any idea what this test logged for CN(C)/N=N/c1nc[nH]c1C(N)=O ?
no (0)

Any idea what this test logged for Cc1c(OCC(F)(F)F)ccnc1CS(=O)c1nc2ccccc2[nH]1 (configuration not stated) ?
no (0)

Any idea what this test logged for CC(=O)N(c1onc(C)c1C)S(=O)(=O)c1ccc(N)cc1 ?
no (0)

Any idea what this test logged for CC(CSC(=O)c1ccccc1)C(=O)N1C[C@@H](Sc2ccccc2)C[C@H]1C(=O)O (some centres not stated) ?
no (0)

Any idea what this test logged for CC(C)(Sc1cc(C(C)(C)C)c(O)c(C(C)(C)C)c1)Sc1cc(C(C)(C)C)c(O)c(C(C)(C)C)c1 ?
no (0)

Any idea what this test logged for N=C(N=C(N)N)N1CCOCC1 ?
no (0)

Any idea what this test logged for CC1(CN2CCC(n3c(=O)[nH]c4ccccc43)CC2)OCc2ccccc2-n2cccc21 (configuration not stated) ?
yes (1)

Any idea what this test logged for CC(=O)N[C@@H](CS)C(=O)O ?
no (0)

Any idea what this test logged for O=C1CC[C@H](C(=O)N2CCCCC2)N1 ?
no (0)

Any idea what this test logged for CCOc1cc(/C=C2/C(=O)N(c3ccccc3)N=C2C)cc(Cl)c1OCC(=O)OC ?
no (0)

Any idea what this test logged for Cc1cc(-n2nc3ccc(Cl)cc3n2)c(O)c(C(C)(C)C)c1 ?
no (0)

Any idea what this test logged for CCN1CCC(n2cc(CNc3cc(Cl)c4ncc(C#N)c(Nc5ccc(F)c(Cl)c5)c4c3)nn2)CC1 ?
yes (1)

Any idea what this test logged for O=C(O)c1ccc(CN2CCC(CN[C@@H]3C[C@H]3c3ccccc3)CC2)cc1 ?
no (0)

Any idea what this test logged for CCOC(=O)c1ccc(O)c(O)c1 ?
no (0)

Any idea what this test logged for O=C(NCCCNc1nc(Nc2cccc(CN3CCOCC3)c2)ncc1C1CC1)C1CCC1 ?
no (0)

Any idea what this test logged for CC1=C(CO)C(=O)O[C@@H]([C@@H](C)[C@H]2CC[C@H]3[C@@H]4C[C@H]5O[C@]56[C@@H](O)C=CC(=O)[C@]6(C)[C@H]4CC[C@]23C)C1 ?
yes (1)

Any idea what this test logged for CN(C)CCN(Cc1ccc(Cl)cc1)c1ccccn1 ?
no (0)

meta.source: PubChem BioAssay (NCATS)
